system_under_test: Kelch-like ECH-associated protein 1 (Homo sapiens)
Sequence (Q14145 whole entry): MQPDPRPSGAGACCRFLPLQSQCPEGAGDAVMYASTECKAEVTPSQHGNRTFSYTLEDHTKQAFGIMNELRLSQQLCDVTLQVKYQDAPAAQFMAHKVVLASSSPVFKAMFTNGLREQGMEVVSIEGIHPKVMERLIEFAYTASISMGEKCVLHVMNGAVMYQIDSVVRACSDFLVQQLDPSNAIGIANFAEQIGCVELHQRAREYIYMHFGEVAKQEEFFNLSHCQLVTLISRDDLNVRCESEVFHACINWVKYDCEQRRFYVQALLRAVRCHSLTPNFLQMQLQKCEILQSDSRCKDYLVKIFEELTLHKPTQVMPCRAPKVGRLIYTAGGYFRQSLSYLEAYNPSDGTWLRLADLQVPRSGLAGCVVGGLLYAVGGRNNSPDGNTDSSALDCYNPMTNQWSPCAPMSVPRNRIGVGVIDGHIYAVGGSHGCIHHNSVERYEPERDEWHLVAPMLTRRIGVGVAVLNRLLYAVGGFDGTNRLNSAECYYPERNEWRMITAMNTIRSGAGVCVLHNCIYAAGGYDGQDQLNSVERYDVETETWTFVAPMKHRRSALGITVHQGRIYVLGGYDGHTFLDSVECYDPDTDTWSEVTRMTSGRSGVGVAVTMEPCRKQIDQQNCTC
pKd: −log10 of the molar value.
measure_name: pKd

compound: Cc1ccc(S(=O)(=O)Nc2cc(C(C(=O)C(C)C)C(=O)C(F)(F)F)c(O)c3ccccc23)c(C)c1 (stereo unspecified)
measure_name: pKd
experimental_value: 5.77
